# Tested on: Rattus norvegicus
# method-description: Percent inhibition ethanol induced necrotic damage of gastric mucosa in male wistar rat after dosage; Dose range 25-100 mg/kg
# Format: functional
property-label: Inhibition of damage (%)
Answers are plain numbers, in %.

Known results for compounds:
| compound | units-text | Inhibition of damage |
| --- | --- | --- |
| COc1ccc2[nH]c([S+]([O-])Cc3ncc(C)c(OC)c3C)nc2c1 (centres undefined) | % | 38 |
| C=C(C(=O)O)[C@@H]1CC[C@@]2(C)CCC[C@@](C)(O)C2C1 (some centres undefined) | % | 5 |
| C=C(CO)[C@@H]1CC[C@@]2(C)CCC[C@@](C)(O)C2C1 (some centres undefined) | % | 1 |

Can you look up the measured Inhibition of damage of C=C(C(=O)O)[C@@H]1CC[C@@]2(C)CCCC(C)=C2C1 for me?
17

###

# Test system: Rattus norvegicus
# method-description: Percent inhibition ethanol induced necrotic damage of gastric mucosa in male wistar rat after dosage; Dose range 25-100 mg/kg
# Format: functional
property-label: Inhibition of damage (%)
Answers are plain numbers, in %.

Known results for molecules:
| molecule | Inhibition of damage, % |
| --- | --- |
| C=C(C=O)[C@@H]1CC[C@@]2(C)CCCC(C)=C2C1 | 5 |
| C=C(C(=O)O)[C@@H]1CCC2=CC(=O)C[C@H](C)[C@@]2(C)C1 [TESSARIC ACID] | 5 |
| C=C(C(=O)O)[C@@H]1CCC2=CC=C[C@H](C)[C@@]2(C)C1 | 23 |
| C=C(C=O)[C@@H]1CC[C@@]2(C)CCC[C@@](C)(O[Si](C)(C)C)C2C1 (stereo not given in full) | 48 |
| C=C1C(=O)O[C@H]2C1CCC(C)=C1C(=O)C=C(C)[C@@H]12 (stereo not given in full) | 97 |

Your task in this section: give Inhibition of damage for each listed record.
1. C=C1C(=O)O[C@]23C[C@H]1CC[C@@]2(C)CCCC3=C
2. C=C1CCC[C@]2(C)CC[C@@H](C(=C)C=O)CC12 (stereo not given in full)
3. C=C(C(=O)OC)[C@@H]1CCC2=CC(=O)C[C@H](C)[C@@]2(C)C1 [TESSARIC ACID METHYL ESTER]

1. 30
2. 23
3. 5

Your task in this section: give Inhibition of damage for each listed record.
1. C=C(C=O)[C@@H]1CC[C@@]2(C)CCC[C@@](C)(O)C2C1 (stereo not given in full)
2. C=C1C(=O)O[C@]23C[C@H]1CC[C@@]2(C)CCC[C@H]3C

96
48
